- protocolNotes: Stability assay in 25% TIDE 2X detergent with DTPA (residual Abz-AGLA-Nba protease activity)
- Assay type: physicochemical
- conditionNotes: 60 min at 32°C; variant residual AGLA activity divided by wild-type residual activity
parameter: PI (relative stability), 25% TIDE 2X with DTPA
Reply with the value as a number alone.

{"molecule": "A058S: single-substitution thermolysin variant (SEQ ID NO:3 numbering) (protein, listed as Geobacillus caldoproteolyticus) ITGTSTVGVGRGVLGDQKNINTTYSTYYYLQDNTRGNGIFTYDAKYRTTLPGSLWADSDNQFFASYDAPAVDAHYYAGVTYDYYKNVHNRLSYDGNNAAIRSSVHYSQGYNNAFWNGSQMVYGDGDGQTFIPLSGGIDVVAHELTHAVTDYTAGLIYQNESGAINEAISDIFGTLVEFYANKNPDWEIGEDVYTPGISGDSLRSMSDPAKYGDPDHYSKRYTGTQDNGGVHINSGIINKAAYLISQGGTHYGVSVVGIGRDKLGKIFYRALTQYLTPTSNFSQLRAAAVQSATDLYGSTSQEVASVKQAFDAVGVK", "valueObserved": 1.02}

Now, please, on to the next molecule.
Complete the entry with PI (relative stability), 25% TIDE 2X with DTPA for I156K: single-substitution thermolysin variant (SEQ ID NO:3 numbering) (protein, listed as Geobacillus caldoproteolyticus) ITGTSTVGVGRGVLGDQKNINTTYSTYYYLQDNTRGNGIFTYDAKYRTTLPGSLWADADNQFFASYDAPAVDAHYYAGVTYDYYKNVHNRLSYDGNNAAIRSSVHYSQGYNNAFWNGSQMVYGDGDGQTFIPLSGGIDVVAHELTHAVTDYTAGLKYQNESGAINEAISDIFGTLVEFYANKNPDWEIGEDVYTPGISGDSLRSMSDPAKYGDPDHYSKRYTGTQDNGGVHINSGIINKAAYLISQGGTHYGVSVVGIGRDKLGKIFYRALTQYLTPTSNFSQLRAAAVQSATDLYGSTSQEVASVKQAFDAVGVK
1.07
